Attribution: patent US20230382911A1

Reported IC50 values are given for each entry in this list.
Molecular target: Recombinant human Mat2a (Homo sapiens (Human))
Sequence (P31153 whole entry): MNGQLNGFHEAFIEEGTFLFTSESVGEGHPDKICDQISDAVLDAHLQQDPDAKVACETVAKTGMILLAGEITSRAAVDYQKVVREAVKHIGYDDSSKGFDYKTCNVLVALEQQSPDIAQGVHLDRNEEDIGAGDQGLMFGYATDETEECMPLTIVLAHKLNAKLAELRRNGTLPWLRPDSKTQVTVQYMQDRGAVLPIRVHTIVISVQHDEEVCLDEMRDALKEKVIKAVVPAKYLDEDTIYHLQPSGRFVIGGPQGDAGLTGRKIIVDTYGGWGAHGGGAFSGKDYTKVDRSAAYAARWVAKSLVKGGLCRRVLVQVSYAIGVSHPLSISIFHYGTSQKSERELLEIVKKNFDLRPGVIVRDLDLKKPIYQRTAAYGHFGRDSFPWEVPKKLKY
Assay: Determination of Mat2A activity: 384 well format absorbance-based Mat2A inhibition assay
Conditions: 12.5 nM Mat2A, 100 μM ATP and Methionine, 2% DMSO, 120 minutes at RT, Biomol Green, absorbance at 635 nm
REPORTED PROPERTY: IC50 (nM)

{"MOLECULE": "Cc1ccccc1C(=O)n1nc(N)c2ccc(C(F)(F)F)nc21", "REPORTED PROPERTY": "IC50", "READOUT UNIT": "nM", "READOUT VALUE": 290}
{"MOLECULE": "C[C@H]1OCC[C@H]1C(=O)n1nc(N)c2ccc(C3CC3)nc21 (racemic)", "REPORTED PROPERTY": "IC50", "READOUT UNIT": "nM", "READOUT VALUE": 36}
{"MOLECULE": "COc1ccccc1C(=O)n1nc(N)c2ccc(N3CCC3)nc21", "REPORTED PROPERTY": "IC50", "READOUT UNIT": "nM", "READOUT VALUE": 300}
{"MOLECULE": "Cc1c(F)cccc1C(=O)n1nc(N)c2ccc(C3CC3)nc21", "REPORTED PROPERTY": "IC50", "READOUT UNIT": "nM", "READOUT VALUE": 210}
{"MOLECULE": "COc1ccccc1C(=O)n1nc(N)c2ccc(CC(C)C)nc21", "REPORTED PROPERTY": "IC50", "READOUT UNIT": "nM", "READOUT VALUE": 110}
{"MOLECULE": "COc1c(F)cccc1C(=O)n1nc(N)c2cc(F)c(N3CCCC3)nc21", "REPORTED PROPERTY": "IC50", "READOUT UNIT": "nM", "READOUT VALUE": 55}
